System tested: Anoctamin-1 (Mus musculus)
Method summary: blockers of mouse ANO1 Ca-activated Cl channel – cell-based, HTS, primary screen (AID 588511)
Condition context: HEK293 TMEM16A/YFP iodide influx fluorescence, ionomycin; at 10 µM
Screen size: about 310,000 compounds; about 3,600 (1.2%) were called active.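 How the source made its calls: active means ratio plate-corrected score three or more library SD toward inhibition, starting fluorescence score within five deviations; inactive means the rest.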 The full list was thinned out, with actives kept by preference.
// allowed return values: active, inactive

Past entries and their recorded results:
CCOc1ccc(/C=C/C(=O)OCC(=O)c2ccccc2OC)cc1OC; inactive
COc1ccc(OC)c(S(=O)(=O)N2CCCC(C(=O)N3CCC(C(N)=O)CC3)C2)c1 (stereo not given); inactive
COc1ccccc1CNC(=O)CSc1nc(=O)n(Cc2ccncc2)c2c1CCC2; inactive
Cc1ccccc1CN1CCNC(=O)C1CC(=O)NCCC1=CCCCC1 (stereo not given); inactive

Pending compound:
query: Status in this test for CC(=O)c1cccc(NC(=O)N2CCCC2C(=O)NCCC(C)C)c1 (stereo not given) ?
result: active

* * *

System tested: Anoctamin-1 (Mus musculus)
Method summary: blockers of mouse ANO1 Ca-activated Cl channel – cell-based, HTS, primary screen (AID 588511)
Condition context: HEK293 TMEM16A/YFP iodide influx fluorescence, ionomycin; at 10 µM
The whole screen tested about 310,000 compounds, of which about 3,600 (1.2%) were called active.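 Rule for the calls: active = ratio plate-corrected score three or more library SD toward inhibition, starting fluorescence score within five deviations; inactive = the rest.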 Many of the other results were omitted from the sample, so actives are more common in it than they were.
Respond only with the outcome that fits, drawn from YES (active), NO (inactive)

Cc1cccc(N(Cc2ccccc2)C(=O)c2cc(S(=O)(=O)N3CCOCC3)ccc2F)c1; NO
CC(=O)N(C1=C(Cl)C(=O)c2ccccc2C1=O)c1ccc(C(=O)O)cc1; YES
Cc1cccc(-c2nc(CS(=O)CC(=O)NC(C)CCc3ccccc3)c(C)o2)c1 (stereo not given); NO
COc1cc(C(C(=O)NC2CCCC2)N(C(=O)c2ccco2)c2ccccc2C(C)=O)cc(OC)c1OC (stereo not given); NO

Continue with the next molecule.
query: Test call, this molecule: COc1cc2sc(C)nc2cc1C
result: NO

* * *

System tested: Anoctamin-1 (Mus musculus)
Method summary: blockers of mouse ANO1 Ca-activated Cl channel – cell-based, HTS, primary screen (AID 588511)
Condition context: HEK293 TMEM16A/YFP iodide influx fluorescence, ionomycin; at 10 µM
In all, about 310,000 compounds went through this assay and about 3,600 (1.2%) were called active.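 The calls were made as follows: active = ratio plate-corrected score three or more library SD toward inhibition, starting fluorescence score within five deviations; inactive = the rest.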 Shown is part of a subset that was picked to be rich in actives.
Parameter call: string, one of active, inactive

The following compounds have reported results that may help.
CN(CC(=O)Nc1cccc(F)c1)CC(=O)Nc1cccc([N+](=O)[O-])c1; inactive
O=C(NCc1ccccn1)C1CCN(S(=O)(=O)c2ccc(Br)cc2)CC1; inactive
CCc1c(C)sc(NC(=O)c2cccs2)c1C(N)=O; inactive
Cc1ccccc1Cn1c(=O)[nH]c2ccccc21; inactive
CCCc1cc(=S)n2c([nH]c3ccccc32)c1C#N; active
O=C(NCCc1c[nH]c2ccc(Cl)cc12)c1ccc([N+](=O)[O-])cc1; inactive

query: Which result was noted for this compound in the test: CS(=O)(=O)N(CC(=O)N1CCOCC1)c1cccc(Cl)c1Cl
result: inactive

query: Ok, now CCOC(=O)CCc1c(C)c(C#N)c2[nH]c3ccccc3n2c1=O
result: inactive

query: Follow-up entry: NS(=O)(=O)c1ccc(CCNC(=O)c2ccc(Cl)cc2[N+](=O)[O-])cc1
result: inactive

query: Then O=C(NCCc1ccc(Cl)cc1Cl)c1cc([N+](=O)[O-])c[nH]c1=O ?
result: active

query: Similarly, COC(=O)c1c(C)c(C)nc(N)c1C#N ?
result: inactive

* * *

System tested: Anoctamin-1 (Mus musculus) (UniProt Q8BHY3)
Sequence (Q8BHY3 whole entry, looked up): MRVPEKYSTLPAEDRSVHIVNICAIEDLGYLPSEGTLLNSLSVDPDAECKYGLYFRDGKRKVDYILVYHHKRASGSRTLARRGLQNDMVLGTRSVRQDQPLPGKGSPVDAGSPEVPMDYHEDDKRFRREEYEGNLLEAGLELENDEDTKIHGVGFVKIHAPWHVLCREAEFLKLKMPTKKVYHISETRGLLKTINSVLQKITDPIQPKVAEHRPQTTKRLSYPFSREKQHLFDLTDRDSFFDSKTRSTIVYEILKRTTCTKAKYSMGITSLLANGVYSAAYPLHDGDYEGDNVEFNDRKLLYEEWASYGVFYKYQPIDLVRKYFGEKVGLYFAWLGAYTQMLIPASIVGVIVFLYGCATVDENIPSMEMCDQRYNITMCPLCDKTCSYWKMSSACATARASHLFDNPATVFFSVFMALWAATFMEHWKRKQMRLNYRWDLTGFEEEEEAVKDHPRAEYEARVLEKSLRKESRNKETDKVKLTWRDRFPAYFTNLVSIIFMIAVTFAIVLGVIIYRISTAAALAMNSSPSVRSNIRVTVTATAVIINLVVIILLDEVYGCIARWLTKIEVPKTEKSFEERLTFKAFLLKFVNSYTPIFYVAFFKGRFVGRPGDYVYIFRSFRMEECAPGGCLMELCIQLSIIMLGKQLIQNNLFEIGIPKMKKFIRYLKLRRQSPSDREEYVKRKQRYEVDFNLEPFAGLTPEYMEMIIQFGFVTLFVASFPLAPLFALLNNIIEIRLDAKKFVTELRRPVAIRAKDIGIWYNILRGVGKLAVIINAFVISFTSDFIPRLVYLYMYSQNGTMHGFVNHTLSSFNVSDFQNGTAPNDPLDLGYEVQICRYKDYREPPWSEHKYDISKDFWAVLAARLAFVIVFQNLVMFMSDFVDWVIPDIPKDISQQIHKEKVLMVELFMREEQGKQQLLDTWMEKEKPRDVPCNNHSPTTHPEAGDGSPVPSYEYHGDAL
Method summary: blockers of mouse ANO1 Ca-activated Cl channel – cell-based, HTS, primary screen (AID 588511)
Condition context: HEK293 TMEM16A/YFP iodide influx fluorescence, ionomycin; at 10 µM
About 3,600 (1.2%) of roughly 310,000 compounds were called active.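 How the source made its calls: active means ratio plate-corrected score three or more library SD toward inhibition, starting fluorescence score within five deviations; inactive means the rest.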 Only a selection was taken, and actives are over-represented in it overall.
Use one of these outcomes when replying: active, inactive

Observe how each entry below is paired with its result.
O=C(OCC1O[C@@H](OC(=O)c2cc(O)c(O)c(O)c2)[C@@H](OC(=O)c2cc(O)c(O)c(O)c2)[C@@H](OC(=O)c2cc(O)c(O)c(O)c2)[C@@H]1OC(=O)c1cc(O)c(O)c(O)c1)c1cc(O)c(O)c(O)c1 (stereo not given in full); inactive
Cc1cccc(CSc2nc3c(c(=O)n2C)SCC3)c1; active
CCn1c(SCc2ccccc2)nc2c(c1=O)SCC2; inactive
Cn1c(SCC(=O)N2CCCCC2)nc2c(c1=O)SCC2; inactive

For the next question, use this compound.
query: Name the outcome recorded for O=C(COC(=O)CNS(=O)(=O)c1ccccc1)NC12CC3CC(CC(C3)C1)C2 in the assay.
result: inactive

* * *

System tested: Anoctamin-1 (Mus musculus) (UniProt Q8BHY3)
Method summary: blockers of mouse ANO1 Ca-activated Cl channel – cell-based, HTS, primary screen (AID 588511)
Condition context: HEK293 TMEM16A/YFP iodide influx fluorescence, ionomycin; at 10 µM
Among all 310,000 compounds or so, about 3,600 (1.2%) were called active.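 Rule for the calls: active = ratio plate-corrected score three or more library SD toward inhibition, starting fluorescence score within five deviations; inactive = the rest.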 The sample as a whole holds a higher share of actives than the screen did.
Parameter call: string, one of true (1) (active), false (0) (inactive)

Please review the following examples before continuing.
Cc1cc(/C=C2\SC(=O)N(C)C2=O)c(C)n1-c1cccc(C(=O)O)c1; false (0)
Cc1ccc(N2C(=O)S/C(=C/c3cn(C)c4ccccc34)C2=O)cc1; true (1)
COc1cccc(CNC(=O)c2cccnc2Sc2ccc(Cl)cc2)c1; false (0)
CC(=O)N(c1ccc2oc(=O)sc2c1)S(=O)(=O)c1ccc(C)cc1; false (0)
Cc1ccc(C(=O)N/C(=C\c2cn(C)c3ccccc23)C(=O)N2CCN(C)CC2)cc1; false (0)

query: Which outcome was entered for the compound OC(c1ccccc1)C(CN1CCOCC1)c1ccccc1 (stereo unspecified) in this test?
result: false (0)

* * *

System tested: Anoctamin-1 (Mus musculus)
Method summary: blockers of mouse ANO1 Ca-activated Cl channel – cell-based, HTS, primary screen (AID 588511)
Condition context: HEK293 TMEM16A/YFP iodide influx fluorescence, ionomycin; at 10 µM
Among all 310,000 compounds or so, about 3,600 (1.2%) were called active.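 Rule for the calls: active = ratio plate-corrected score three or more library SD toward inhibition, starting fluorescence score within five deviations; inactive = the rest.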 This excerpt belongs to a sample that is enriched for actives.
Choose one outcome from this list and give only that: active, inactive

COc1cc(NC(=O)c2ccccc2NS(=O)(=O)c2ccc(Cl)s2)cc(OC)c1; active
CCN(CC)CC(=O)c1c[nH]c2ccc(OC)cc12; inactive
Fc1cc(F)c2nc(N3CCOCC3)sc2c1; inactive
O=C(N/N=C/c1cccc(OCc2ccccc2)c1)c1ccc(Br)o1; inactive
O=C(Nc1ccc(C(=O)NCc2ccccc2Cl)cc1)C1=CSCCO1; inactive

query: Fill in: this test's call for O=S(=O)(NC1CC2CCC1C2)c1ccc(Cl)cc1 (stereo unspecified) is ___
result: inactive

query: And what about the compound COC(=O)c1ccccc1NC(=O)c1ccccc1NS(C)(=O)=O ?
result: inactive

query: # iterate: CN(c1ccc(C(=O)N2CCc3ccccc3C2)cc1)S(C)(=O)=O
result: inactive

query: // repeat for COc1ccc(/C=C(\C#N)c2c[nH]c3ccccc23)cc1 and report
result: inactive

query: Follow-up entry: CC(=O)Nc1ccc(C(=O)OCC(=O)Nc2ccc([N+](=O)[O-])cc2C(F)(F)F)cc1
result: inactive

query: Same thing, different compound: CN(c1cccc(NC(=O)c2ccc(CN3CCc4ccccc4C3)cc2)c1)S(C)(=O)=O
result: active

* * *

System tested: Anoctamin-1 (Mus musculus) (UniProt Q8BHY3)
Method summary: blockers of mouse ANO1 Ca-activated Cl channel – cell-based, HTS, primary screen (AID 588511)
Condition context: HEK293 TMEM16A/YFP iodide influx fluorescence, ionomycin; at 10 µM
The campaign covered roughly 310,000 compounds. About 3,600 (1.2%) were called active.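 The calls were made as follows: active = ratio plate-corrected score three or more library SD toward inhibition, starting fluorescence score within five deviations; inactive = the rest.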 This excerpt belongs to a sample that is enriched for actives.
# output must be one of active, inactive

CN(C)CCCN(C(=O)c1ccc(S(=O)(=O)N2CCCc3ccccc32)cc1)c1nc2ccc(F)cc2s1; inactive

query: Hello, I am checking results. What call was entered for Cc1n[nH]c(=O)n1-c1ccc(Oc2ccccc2)cc1 ?
result: inactive

query: Item: COc1cc(Cl)c(C)cc1NC(=O)CN1CCCCCC1
result: inactive

query: And for CC(C)NC(=O)/C(C#N)=C\c1ccc(N(C)C)c(Br)c1 ?
result: inactive

query: Param item: CN(Cc1ccccc1)C(=O)CCc1ccccc1
result: inactive

query: And then COc1ccc(/C=C2\SC(=O)N(CCC(=O)NCCCn3ccnc3)C2=O)cc1 , what is it?
result: inactive

query: What about CC(=O)c1c(C)[nH]c(C(=O)COC(=O)c2cccc(S(=O)(=O)N(C)c3ccccc3)c2)c1C ?
result: active

query: Cool, now COc1ccc(CN(C)C(=O)CC(c2ccccc2)c2ccccc2)cc1
result: active

query: And what about the compound CCOC(=O)NC(=O)/C(C#N)=C\c1ccccc1 ?
result: inactive

query: Same read-out for CSc1nc2ccc(S(=O)(=O)N3CCc4ccccc43)cc2s1 ?
result: inactive

query: Follow-up entry: Cn1c(=O)n(C)c2cc(S(=O)(=O)N3CCCc4ccccc43)ccc21
result: active
